For each record, write down the corresponding IC50.
target: Alpha-glucosidase (Saccharomyces cerevisiae S288c, UniProt P53341+P38158+P07265); assay: Inhibition of alpha-glucosidase using 4-Nitrophenyl-[…]-D-glucopyranoside (pNPG) as substrate; type: protein assay
Unit µM implied. Number only.

Give the measured IC50 of "CC1(C)CC[C@]2(C(=O)OCC(=O)NCc3cn(-c4ccc(Cl)cc4)nn3)[C@H](O)C[C@]3(C)C(=CC[C@@H]4[C@@]5(C)CC[C@H](O)C(C)(C)[C@@H]5CC[C@]43C)[C@@H]2C1" . 18.18

Give the measured IC50 of "CC1(C)CC[C@]2(C(=O)O)[C@H](O)C[C@]3(C)C(=CC[C@@H]4[C@@]5(C)CC[C@H](O)C(C)(C)[C@@H]5CC[C@]43C)[C@@H]2C1" . 59.91

* * *

target: Alpha-glucosidase (Saccharomyces cerevisiae S288c) (UniProt P53341+P38158+P07265); assay: Inhibition of alpha-glucosidase using 4-Nitrophenyl-[…]-D-glucopyranoside (pNPG) as substrate assessed as inhibition rate at 30 uM relative control; format: protein assay
Each entry gets class 0 if its inhibition stays under 60%, and class 1 if its inhibition is 60% or above.

Tell me whether inhibition is at least 60% here: "CC1(C)CC[C@]2(C(=O)OCCn3ncn(-c4ccc(F)cc4)c3=O)[C@H](O)C[C@]3(C)C(=CC[C@@H]4[C@@]5(C)CC[C@H](O)C(C)(C)[C@@H]5CC[C@]43C)[C@@H]2C1" class 0

Tell me whether inhibition is at least 60% here: "CC1(C)CC[C@]2(C(=O)OCC(=O)NCc3cn(-c4ccc(Cl)c(Cl)c4)nn3)[C@H](O)C[C@]3(C)C(=CC[C@@H]4[C@@]5(C)CC[C@H](O)C(C)(C)[C@@H]5CC[C@]43C)[C@@H]2C1" class 1

Tell me whether inhibition is at least 60% here: "CC1(C)CC[C@]2(C(=O)NCc3cn(-c4ccc(F)cc4)nn3)[C@H](O)C[C@]3(C)C(=CC[C@@H]4[C@@]5(C)CC[C@H](O)C(C)(C)[C@@H]5CC[C@]43C)[C@@H]2C1" class 0

Tell me whether inhibition is at least 60% here: "COc1ccc(-c2noc(COC(=O)[C@]34CCC(C)(C)C[C@H]3C3=CC[C@@H]5[C@@]6(C)CC[C@H](O)C(C)(C)[C@@H]6CC[C@@]5(C)[C@]3(C)C[C@H]4O)n2)cc1" class 1

Tell me whether inhibition is at least 60% here: "Cc1ccc(-n2cc(CNC(=O)[C@]34CCC(C)(C)C[C@H]3C3=CC[C@@H]5[C@@]6(C)CC[C@H](O)C(C)(C)[C@@H]6CC[C@@]5(C)[C@]3(C)C[C@H]4O)nn2)cc1" class 1

* * *

target: Alpha-glucosidase (Saccharomyces cerevisiae S288c) (UniProt P53341+P38158+P07265); assay: Inhibition of alpha-glucosidase using 4-Nitrophenyl-[…]-D-glucopyranoside (pNPG) as substrate assessed as inhibition rate at 30 uM relative control; assay type: protein assay
EXPERIMENTAL READOUT: inhibition (%)
Unit % implied. Number only.

Give the measured inhibition of "CC1(C)CC[C@]2(C(=O)OCc3nnc(-c4ccc(Cl)cc4)o3)[C@H](O)C[C@]3(C)C(=CC[C@@H]4[C@@]5(C)CC[C@H](O)C(C)(C)[C@@H]5CC[C@]43C)[C@@H]2C1" . 67.3

Give the measured inhibition of "CC1(C)CC[C@]2(C(=O)OCc3nc(-c4ccc(Cl)cc4)no3)[C@H](O)C[C@]3(C)C(=CC[C@@H]4[C@@]5(C)CC[C@H](O)C(C)(C)[C@@H]5CC[C@]43C)[C@@H]2C1" . 85.1

Give the measured inhibition of "COc1ccc(-n2cc(CNC(=O)COC(=O)[C@]34CCC(C)(C)C[C@H]3C3=CC[C@@H]5[C@@]6(C)CC[C@H](O)C(C)(C)[C@@H]6CC[C@@]5(C)[C@]3(C)C[C@H]4O)nn2)cc1" . 51.4

* * *

biological target: Alpha-glucosidase (Saccharomyces cerevisiae S288c) (UniProt P53341+P38158+P07265); assay: Inhibition of alpha-glucosidase using 4-Nitrophenyl-[…]-D-glucopyranoside (pNPG) as substrate assessed as inhibition rate at 30 uM relative control; assay type: protein assay
EXPERIMENTAL READOUT: inhibition (%)
Unit % implied. Number only.

Give the measured inhibition of "CC1(C)CC[C@]2(C(=O)OCc3nnc(-c4ccc(Cl)c(Cl)c4)o3)[C@H](O)C[C@]3(C)C(=CC[C@@H]4[C@@]5(C)CC[C@H](O)C(C)(C)[C@@H]5CC[C@]43C)[C@@H]2C1" . 69.8

Give the measured inhibition of "CC1(C)CC[C@]2(C(=O)OCCn3ncn(-c4ccc(Cl)cc4)c3=O)[C@H](O)C[C@]3(C)C(=CC[C@@H]4[C@@]5(C)CC[C@H](O)C(C)(C)[C@@H]5CC[C@]43C)[C@@H]2C1" . 47.7

Give the measured inhibition of "CC1(C)CC[C@]2(C(=O)OCc3nc(-c4ccccc4)no3)[C@H](O)C[C@]3(C)C(=CC[C@@H]4[C@@]5(C)CC[C@H](O)C(C)(C)[C@@H]5CC[C@]43C)[C@@H]2C1" . 58.3

Give the measured inhibition of "CC1(C)CC[C@]2(C(=O)OCC(=O)NCc3cn(-c4ccccc4)nn3)[C@H](O)C[C@]3(C)C(=CC[C@@H]4[C@@]5(C)CC[C@H](O)C(C)(C)[C@@H]5CC[C@]43C)[C@@H]2C1" . 59.9

Give the measured inhibition of "CC1(C)CC[C@]2(C(=O)OCc3nc(-c4ccc(F)cc4)no3)[C@H](O)C[C@]3(C)C(=CC[C@@H]4[C@@]5(C)CC[C@H](O)C(C)(C)[C@@H]5CC[C@]43C)[C@@H]2C1" . 64.6

Give the measured inhibition of "CC1(C)CC[C@]2(C(=O)NCc3cn(-c4ccc(Cl)c(Cl)c4)nn3)[C@H](O)C[C@]3(C)C(=CC[C@@H]4[C@@]5(C)CC[C@H](O)C(C)(C)[C@@H]5CC[C@]43C)[C@@H]2C1" . 88.1

Give the measured inhibition of "CC1(C)CC[C@]2(C(=O)NCc3cn(-c4ccccc4)nn3)[C@H](O)C[C@]3(C)C(=CC[C@@H]4[C@@]5(C)CC[C@H](O)C(C)(C)[C@@H]5CC[C@]43C)[C@@H]2C1" . 55.9

Give the measured inhibition of "CC1(C)CC[C@]2(C(=O)OCc3nc(-c4ccc(Cl)c(Cl)c4)no3)[C@H](O)C[C@]3(C)C(=CC[C@@H]4[C@@]5(C)CC[C@H](O)C(C)(C)[C@@H]5CC[C@]43C)[C@@H]2C1" . 36.5

Give the measured inhibition of "CC1(C)CC[C@]2(C(=O)OCCn3ncn(-c4ccccc4)c3=O)[C@H](O)C[C@]3(C)C(=CC[C@@H]4[C@@]5(C)CC[C@H](O)C(C)(C)[C@@H]5CC[C@]43C)[C@@H]2C1" . 46.1

Give the measured inhibition of "CC1(C)CC[C@]2(C(=O)OCC(=O)NCc3cn(-c4ccc(F)cc4)nn3)[C@H](O)C[C@]3(C)C(=CC[C@@H]4[C@@]5(C)CC[C@H](O)C(C)(C)[C@@H]5CC[C@]43C)[C@@H]2C1" . 61.5

Give the measured inhibition of "CC1(C)CC[C@]2(C(=O)O)[C@H](O)C[C@]3(C)C(=CC[C@@H]4[C@@]5(C)CC[C@H](O)C(C)(C)[C@@H]5CC[C@]43C)[C@@H]2C1" . 18.4

* * *

target: Alpha-glucosidase (Saccharomyces cerevisiae S288c, UniProt P53341+P38158+P07265); test: Inhibition of alpha-glucosidase using 4-Nitrophenyl-[…]-D-glucopyranoside (pNPG) as substrate; assay type: protein assay
EXPERIMENTAL READOUT: IC50 (µM)
Unit µM implied. Number only.

Give the measured IC50 of "CC1(C)CC[C@]2(C(=O)OCc3nc(-c4ccc(F)cc4)no3)[C@H](O)C[C@]3(C)C(=CC[C@@H]4[C@@]5(C)CC[C@H](O)C(C)(C)[C@@H]5CC[C@]43C)[C@@H]2C1" . 16.01

Give the measured IC50 of "CC1(C)CC[C@]2(C(=O)OCc3nnc(-c4ccc(Cl)cc4)o3)[C@H](O)C[C@]3(C)C(=CC[C@@H]4[C@@]5(C)CC[C@H](O)C(C)(C)[C@@H]5CC[C@]43C)[C@@H]2C1" . 21.94

Give the measured IC50 of "CC1(C)CC[C@]2(C(=O)NCc3cn(-c4ccccc4)nn3)[C@H](O)C[C@]3(C)C(=CC[C@@H]4[C@@]5(C)CC[C@H](O)C(C)(C)[C@@H]5CC[C@]43C)[C@@H]2C1" . 22.72

Give the measured IC50 of "COc1ccc(-c2nnc(COC(=O)[C@]34CCC(C)(C)C[C@H]3C3=CC[C@@H]5[C@@]6(C)CC[C@H](O)C(C)(C)[C@@H]6CC[C@@]5(C)[C@]3(C)C[C@H]4O)o2)cc1" . 22.28

Give the measured IC50 of "CC1(C)CC[C@]2(C(=O)OCc3nnc(-c4ccc(Cl)c(Cl)c4)o3)[C@H](O)C[C@]3(C)C(=CC[C@@H]4[C@@]5(C)CC[C@H](O)C(C)(C)[C@@H]5CC[C@]43C)[C@@H]2C1" . 17.25

Give the measured IC50 of "CC1(C)CC[C@]2(C(=O)OCCn3ncn(-c4ccc(Cl)c(Cl)c4)c3=O)[C@H](O)C[C@]3(C)C(=CC[C@@H]4[C@@]5(C)CC[C@H](O)C(C)(C)[C@@H]5CC[C@]43C)[C@@H]2C1" . 3.42

Give the measured IC50 of "CC1(C)CC[C@]2(C(=O)OCC(=O)NCc3cn(-c4ccc(F)cc4)nn3)[C@H](O)C[C@]3(C)C(=CC[C@@H]4[C@@]5(C)CC[C@H](O)C(C)(C)[C@@H]5CC[C@]43C)[C@@H]2C1" . 18.52

Give the measured IC50 of "Cc1ccc(-n2cc(CNC(=O)[C@]34CCC(C)(C)C[C@H]3C3=CC[C@@H]5[C@@]6(C)CC[C@H](O)C(C)(C)[C@@H]6CC[C@@]5(C)[C@]3(C)C[C@H]4O)nn2)cc1" . 21.25

Give the measured IC50 of "CC1(C)CC[C@]2(C(=O)OCc3nc(-c4ccccc4)no3)[C@H](O)C[C@]3(C)C(=CC[C@@H]4[C@@]5(C)CC[C@H](O)C(C)(C)[C@@H]5CC[C@]43C)[C@@H]2C1" . 26.2

Give the measured IC50 of "CC1(C)CC[C@]2(C(=O)OCC(=O)NCc3cn(-c4ccc(Cl)c(Cl)c4)nn3)[C@H](O)C[C@]3(C)C(=CC[C@@H]4[C@@]5(C)CC[C@H](O)C(C)(C)[C@@H]5CC[C@]43C)[C@@H]2C1" . 3.4

Give the measured IC50 of "CC1(C)CC[C@]2(C(=O)OCC(=O)NCc3cn(-c4ccccc4)nn3)[C@H](O)C[C@]3(C)C(=CC[C@@H]4[C@@]5(C)CC[C@H](O)C(C)(C)[C@@H]5CC[C@]43C)[C@@H]2C1" . 21.7

Give the measured IC50 of "CC1(C)CC[C@]2(C(=O)OCc3nnc(-c4ccccc4)o3)[C@H](O)C[C@]3(C)C(=CC[C@@H]4[C@@]5(C)CC[C@H](O)C(C)(C)[C@@H]5CC[C@]43C)[C@@H]2C1" . 19.36

Give the measured IC50 of "CC1(C)CC[C@]2(C(=O)OCCn3ncn(-c4ccc(Cl)cc4)c3=O)[C@H](O)C[C@]3(C)C(=CC[C@@H]4[C@@]5(C)CC[C@H](O)C(C)(C)[C@@H]5CC[C@]43C)[C@@H]2C1" . 28.69

Give the measured IC50 of "CC1(C)CC[C@]2(C(=O)OCc3nc(-c4ccc(Cl)cc4)no3)[C@H](O)C[C@]3(C)C(=CC[C@@H]4[C@@]5(C)CC[C@H](O)C(C)(C)[C@@H]5CC[C@]43C)[C@@H]2C1" . 4.11

Give the measured IC50 of "COc1ccc(-c2noc(COC(=O)[C@]34CCC(C)(C)C[C@H]3C3=CC[C@@H]5[C@@]6(C)CC[C@H](O)C(C)(C)[C@@H]6CC[C@@]5(C)[C@]3(C)C[C@H]4O)n2)cc1" . 3.41

Give the measured IC50 of "CC1(C)CC[C@]2(C(=O)NCc3cn(-c4ccc(Cl)cc4)nn3)[C@H](O)C[C@]3(C)C(=CC[C@@H]4[C@@]5(C)CC[C@H](O)C(C)(C)[C@@H]5CC[C@]43C)[C@@H]2C1" . 21.19
